System: HeLa S3 cells
Experiment: Test for growth inhibition of HeLa S3 cells
Assay type: cell-based
Settings: Homo sapiens, HeLa S3, 72 h, HeLa S3 cells, 72 hours with test compound, Cell Proliferation Kit II; read-out: Cell growth inhibition (IC50)
pIC50: −log10 of the molar value.
Binary call on pIC50: yes (1) from 5 upward, no (0) beneath that.

Some solved cases for reference:
Request: Check the entry Oc1ccc(SCCN(O)CCSc2ccc(O)cc2)cc1 [Compound 48] : does pIC50 equal or exceed 5?
Result: yes (1)

Request: Identify whether the reported pIC50 of the following compound is 5 or greater: CS(=O)(=O)NCCN(CCSc1ccc(O)cc1)CCSc1ccc(O)cc1 [Compound 195]
Result: yes (1)

Request: Exam item: decide whether the reported pIC50 for CC[N+](CC)(CC)CCCN(CCSc1ccc(O)cc1)CCSc1ccc(O)cc1 [Compound 213] is at least 5.
Result: no (0)

Request: # check: pIC50 of Oc1ccc(SCCCCCCCSc2ccc(O)cc2)cc1 [Compound 138] is greater than or equal to 5
Result: no (0)

Request: I'd appreciate it if you could say whether N#CCCN(CCC#N)C(=O)CN(CCSc1ccc(O)cc1)CCSc1ccc(O)cc1 [Compound 204] has pIC50 at least equal to 5.
Result: yes (1)

We now examine a further compound.
Request: Does the reported pIC50 for Oc1ccc(SCCN(CCSc2ccc(O)cc2)Cc2cccs2)cc1 [Compound 89] fall at or above the 5 mark?
Result: yes (1)
